# GI50 per entry
tested on: SF-539; experiment: NCI tumour cell line growth inhibition, 48 h
The source made the active and inactive calls. No stated cut-off is given here; in the data, active = GI50 up to about 1.1 µM and inactive = higher.
Quantity: GI50

1) CC[C@H]1CN2CCc3cc(OC)c(OC)cc3[C@@H]2C[C@@H]1C[C@H]1NCCc2cc(O)c(OC)cc21 : 0.0308 µM (active)
2) COc1ccc(C)c2c1N[C@](C)([C@]1(C)Nc3c(OC)ccc(C)c3C1=O)C2=O : > 100 µM (inactive)
3) O/N=C1\CCc2cc3c(cc21)CCC3 : > 100 µM (inactive)
4) CCOC(=O)C(NCc1cccc(C(F)(F)F)c1)(NC(=O)CC)C(F)(F)F (stereo not given) : > 100 µM (inactive)
5) C/C(=N\OCC(O)CNCCSCc1ccccc1)c1ccccc1Cl (stereo not given) : 19.5 µM (inactive)
6) CCOC(=O)Cc1csc(N/N=C2\C(=O)Nc3ccccc32)n1 : 30.7 µM (inactive)
7) COc1ccc(OCC(=O)O)c(C(=O)CCC(=O)O)c1 : > 100 µM (inactive)
8) CC(C)(C)OC(=O)N1N=CCC1c1ccccc1 (stereo not given) : > 100 µM (inactive)
9) CCN(CC)CCCNc1nc(=O)[nH]c(C)c1C(=O)Nc1ccc2c(c1)c1ccccc1n2CC : > 100 µM (inactive)
10) CC(=O)N1C(c2[nH]c3ccccc3c2Cc2ccccc2)CCN1c1ccccc1 (stereo not given) : > 10 µM (inactive)
11) O=C1c2ccccc2/N=C(/c2cc3c(cc2Cl)Sc2nccn2S3(=O)=O)OS(=O)(=O)N1c1ccccc1 : 36.7 µM (inactive)
12) O=C1CCSC(=S)N1c1ccc(Br)c(Cl)c1 : 33 µM (inactive)
13) Cc1ccc(S(=O)(=O)N(CCN2C(=O)c3ccccc3C2=O)c2cc3c4c(c2)Oc2cc(N(CCN5C(=O)c6ccccc6C5=O)S(=O)(=O)c5ccc(C)cc5)cc5c2C4(C)c2c(cc(N(CCN4C(=O)c6ccccc6C4=O)S(=O)(=O)c4ccc(C)cc4)cc2O5)O3)cc1 : > 100 µM (inactive)
14) CC(=O)C1=C(C)N2C(=NC3=C(CCc4ccccc43)C2c2cccc(Br)c2)S1 (stereo not given) : > 100 µM (inactive)
15) CC1OC23CCCCC2C(C#N)(C#N)C1(C#N)C(=N)O3 (stereo not given) : 21.8 µM (inactive)

----------
system: A549; assay: NCI tumour cell line growth inhibition, 48 h
Active and inactive are the calls of the source. No stated cut-off is given here; in the data, active = GI50 up to about 1.1 µM and inactive = higher.
Outcomes: 1 for active, 0 for inactive

1) C/C(=N\OCC(O)CNCCSCc1ccccc1)c1ccccc1Cl (stereo not given) : 0
2) C=C[C@@]1(C)CC(=O)[C@]2(O)[C@@]3(C)[C@@H](OC(C)=O)CCC(C)(C)[C@@H]3[C@H](O)[C@H](OC(C)=O)[C@@]2(C)O1 : 0
3) O=C(N/N=C1\C(=O)Nc2c(Cl)cc(Cl)cc21)C(=O)Nc1cccc(C(F)(F)F)c1 : 0
4) CC(C)C(C/C=C1\CC(CO)(COC(=O)CC(C(C)C)C(C)C)OC1=O)C(C)C (stereo not given) : 0
5) O=S1(=O)CC#CC[C@@H](CO)[C@@H](CO)CC#CC1 : 0
6) CC#C[C@]1(O)CCC2[C@@H]3CCC4=CC(=O)CCC4=C3[C@@H](c3ccc(N(C)C)cc3)C[C@@]21C (stereo not given in full) : 0
7) COC1=NN2C(OC)(c3ccccc3)c3c(-c4ccccc4)sc(-c4ccccc4)c3C2(c2ccccc2)S1 (stereo not given) : 0
8) O=C1C(NS(=O)(=O)c2ccccc2)=C(n2ccnc2)C(=O)c2ccccc21 : 0
9) CSc1ncc2c(n1)-c1ccccc1OC2NC(C)(C)C (stereo not given) : 0
10) O=C(NNC(=S)Nc1ccc(Br)cc1)c1cc(-c2ccccc2)nc2ccccc12 : 0
11) CC(C)(O)C1CC(=O)C(C)(C2C(O)CC3(C)C4CC=C5C(CCC(O)C5(C)C)C4(C)C(=O)CC23C)O1 (stereo not given) : 0
12) COc1ccc(S(=O)(=O)N(C)CC(=O)O)cc1 : 0
13) Cn1nc(-c2cccc(-c3nn(C)/c(=N\CCO)s3)n2)s/c1=N/CCO : 0
14) O=C(Cc1nc2sc3c(c2c(=O)[nH]1)CCCC3)Nc1ccccc1 : 0
15) Nc1ncnc2c1nc(Cl)n2C1OC2COP(=O)(O)OC2C1O (stereo not given) : 0
16) COc1cc(NS(C)(=O)=O)ccc1Nc1ccnc2ccc3[nH]ccc3c12 : 0
17) Cc1cccc(C)c1NC(=O)Nc1ccc(S(N)(=O)=O)cc1 : 0
18) O=c1c2c3c(sc2nc2n1N=C(c1ccc(Br)cc1)CS2)CCCC3 : 0
19) Cc1ccc2c3c1[C@@H]1O[C@@H]1c1cccc(c1-3)[C@@H]1O[C@H]21 : 0
20) Oc1cccc(-c2cccc(O)n2)n1 : 0
21) COC(=O)CCCc1ccc2c(c1)CC1(Cc3ccccc3C1)C2 : 0
22) C/C(=N\Nc1nc2ccccc2o1)c1cccc[n+]1[O-] : 0
23) CCCCCCCCCCCCCCCCNc1nc(=O)n(C2CC(O)C(COP(=O)(O)OC3CC(n4cc(F)c(=O)[nH]c4=O)OC3CO)O2)cc1F (stereo not given) : 1
24) O=C1NC(=O)C(CCC(=O)c2ccc3ccccc3c2)C(=O)N1 : 0
25) CC(=O)NNc1nc(C)c(C(=O)NNC(=O)C(=O)Nc2c([N+](=O)[O-])ccc(C)c2C)s1 : 0

----------
test system: HOP-92; assay: NCI tumour cell line growth inhibition, 48 h
Activity calls are given as the source filed them. Rule as the data show it: active = GI50 up to about 1.1 µM and inactive = higher.
Quantity: GI50

1) Cn1c(N)nc(-c2ccc(Cl)cc2)c1SSc1c(-c2ccc(Cl)cc2)nc(N)n1C : 1.97 µM (inactive)
2) N=C1/C(=C/c2ccccc2)C(=O)N=C2SC=NN12 : > 100 µM (inactive)
3) O=C(Nc1ccccc1C(=O)NCc1ccccc1)/C(=C/c1ccccc1O)NC(=O)c1ccccc1 : 75.3 µM (inactive)
4) CCc1n[nH]c(=O)n1-c1ccncc1 : > 100 µM (inactive)
5) COC(=O)C12C3C4(C(=O)OC)C1C1(C(=O)OC)C2C3(C(=O)OC)C41C(=O)N(C(C)C)C(C)C (centres undefined) : > 100 µM (inactive)
6) O=C1c2ccccc2-c2ccc(/N=N/c3c(O)ccc4ccccc34)cc21 : > 100 µM (inactive)
7) c1cc2c3c(c1)[C@@H]1O[C@@H]1c1cccc(c1-3)[C@@H]1O[C@H]21 : 20.8 µM (inactive)
8) N=C(N)c1ccc(/N=N\c2c(O)ccc3c2[nH]c2ccccc23)cc1 : 98.6 µM (inactive)
9) O=C1NC(=O)C(CCC(=O)c2ccc3ccccc3c2)C(=O)N1 : > 100 µM (inactive)
10) CC/C(Cl)=N\OC(=O)Nc1ccc(F)cc1F : 1.93 µM (inactive)
11) CC(C)(CN1CCCCC1)C(=O)/C=C/c1ccc(Cl)cc1 : 1.6 µM (inactive)
12) O=C(O)C(F)(F)C(F)(F)C(F)(F)C(F)(F)C(F)(F)C(F)(F)C(F)(F)C(F)(F)F : 24.9 µM (inactive)
13) CN(C)c1nc(N(C)C)nc(N(C)C23CC4CC(CC(C4)C2)C3)n1 : 21.8 µM (inactive)
14) N/N=C(\C(=O)Nc1c(Cl)cc([N+](=O)[O-])cc1Cl)C(c1cnc2ccc([N+](=O)[O-])cc2n1)[N+](=O)[O-] (centres undefined) : > 100 µM (inactive)
15) Cc1nc2sccn2c1C(=O)NNC(N)=S : 77.6 µM (inactive)
16) CC(=O)Oc1ccc(C(c2ccc(OC(C)=O)cc2)c2ccccn2)cc1 : 36.8 µM (inactive)
17) O=C(O)CNC(=O)c1ccc([As](=O)(O)O)cc1 : > 100 µM (inactive)
18) CC(=O)/C(=C/NC(=S)c1ccncc1)C(=O)Nc1ccccc1C : > 100 µM (inactive)
19) CN(C)CCCNC(=O)CCNC(=O)c1cc(NC(=O)c2cc(NC(=O)c3cc(NC(=O)CCCNC(=O)c4cc(NC(=O)c5cc(NC(=O)c6nccn6C)cn5C)cn4C)cn3C)cn2C)cn1C : > 100 µM (inactive)

----------
test system: SR; experiment: NCI tumour cell line growth inhibition, 48 h
Activity calls are given as the source filed them. Cut-off read from the data, not from the text of the source: active = GI50 up to about 1.1 µM and inactive = higher.
Quantity: GI50

1) CCOC(=O)C1=NN(c2ccc(Cl)cc2)C2=CC(C)=NN(C)C(=S)N21 : > 100 µM (inactive)
2) CC(=O)NNc1nc(C)c(C(=O)NNC(=O)C(=O)Nc2c([N+](=O)[O-])ccc(C)c2C)s1 : 92.3 µM (inactive)
3) CC(C)(C)c1cc(C(O)(C(=O)O)C(=O)O)cc(C(C)(C)C)c1O : > 100 µM (inactive)
4) S=C1N(/N=C/c2c3ccccc3cc3ccccc23)C(=N\c2ccccc2)/C(=N/c2ccccc2)N1c1ccccc1 : > 100 µM (inactive)
5) COc1ccc(C(=O)Sc2c(-c3ccccc3)c(=O)n(-c3ccccc3)c(=S)n2-c2ccccc2)cc1 : 25.4 µM (inactive)
6) CCc1cc(CCC(=O)Nc2ccccc2[N+](=O)[O-])nc(S)n1 : > 100 µM (inactive)
7) COc1cc(OC)c(-c2ccc(OCc3ccccc3)c3c(OC)cc(C)cc23)c2c1C(C)=N[C@H](C)C2 : 1.16 µM (inactive)
